- ASSAY NAME: ovarian cancer cell viability with rucaparib, profiling panel, oncology-focused library, rucaparib conditional (AID 1508598)
- ASSAY CONTEXT: patient-derived ovarian cancer cells, CellTiter-Glo viability, 144 h; at 0.00488 µM; OCI-C5x cells; with rucaparib 10 µM; stronger effect = lower value; 100% = cells with rucaparib alone
Active and inactive are the calls of the source.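 The calls were made as follows: active = normalized viability below 100% at a tested concentration; inactive = the rest.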
MEASURED PROPERTY: viability

O=c1cc(N2CCOCC2)oc2c(-c3ccccc3)cccc12: 93% (active)
O=c1cc(-c2cccc3c2Sc2ccccc2S3)oc(N2CCOCC2)c1: 118% (inactive)

## Input Form field: reported viability of O=C(O)c1ccc(-c2c[nH]c3ncc(-c4ccccc4)cc23)cc1C1CCCC1
## Output 112% (inactive)

## Input And what about the compound CC(NC(=O)c1ccccc1N=Cc1c(O)ccc2ccccc12)c1ccccc1 (stereo not given) ?
## Output 119% (inactive)

## Input And what about the compound CC(C)c1onc(-c2c(Cl)cccc2Cl)c1COc1ccc(/C=C/c2cccc(C(=O)O)c2)c(Cl)c1 ?
## Output 103% (inactive)

## Input And what about the compound C[C@@H](N)C1CCC(C(=O)Nc2ccncc2)CC1 (stereo not given in full) ?
## Output 115% (inactive)

## Input And what about the compound Nc1nc(Cl)nc2c1ncn2[C@H]1C[C@H](O)[C@@H](CO)O1 ?
## Output 96% (active)

## Input And what about the compound O=c1[nH]c(-c2ccc(C(F)(F)F)cc2)nc2c1CSCC2 ?
## Output 121% (inactive)

## Input And what about the compound NC(=O)Nc1sc(-c2ccc(F)cc2)cc1C(N)=O ?
## Output 124% (inactive)

## Input And what about the compound O=C(O)Cc1cccc(OCCCN(Cc2cccc(C(F)(F)F)c2Cl)CC(c2ccccc2)c2ccccc2)c1 ?
## Output 115% (inactive)

---

- Test system: R275C
- ASSAY NAME: modulators of BK channel variants, profiling panel, selectivity assay, cell-based, U2OS BacMam, thallium flux, beta subunits (AID 1259406);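 also: initial slope of Thallos dye fluorescence rise after thallium is added; log ratio against the mean of 0.3% DMSO vehicle wells on the same plate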
- ASSAY CONTEXT: at 30 µM
Please assign NOT MET whenever log fold change Tl+ flux is at or above -0.002, and MET whenever it is below.

CCOC(=O)Cn1c(=O)ccc2c(C)cc(C)nc21: MET
Cc1nn(C)c2ncc(C(N)=O)c(Oc3ccc(Cl)cc3)c12: MET
Cc1cc2nccc(-c3cccnc3)n2n1: NOT MET
CC12CCC(c3c1nn(-c1ccccc1)c3C(F)(F)F)C2(C)C (stereo unspecified): NOT MET
C[C@@H](c1ncncc1F)[C@](O)(Cn1cncn1)c1ccc(F)cc1F: MET
O=C(O[C@H]1[C@H](Oc2ccccc2COC(=O)C2(O)C=CCCC2=O)O[C@H](CO)[C@@H](O)[C@@H]1O)c1ccccc1 (stereo partly specified): NOT MET

## Input Please check: log fold change Tl+ flux for CC(C)(C)c1ccc(Oc2ccc(NC(=O)Nc3cccs3)cn2)cc1 , strictly under -0.002 or not?
## Output NOT MET

## Input And what about the compound CC(=O)c1cc2cc(Cl)cc(Cl)c2oc1=O ?
## Output MET

## Input And what about the compound O=C(c1ncoc1-c1ccccc1)N(Cc1ccccn1)Cc1ccccn1 ?
## Output MET

## Input And what about the compound O=C1CN2Cc3c(ccc(Cl)c3Cl)N=C2N1 ?
## Output MET

## Input And what about the compound N=c1c(C(N)=O)cc2c(=O)n3ccccc3nc2n1Cc1ccco1 ?
## Output NOT MET
